System: HepG2 2.2.15
assay_notes: Cytotoxicity against human HepG2.2.15 cells by Cell-titer Glo luminescent assay
Type: functional
measurement_label: CC50

>  <compound>
COCc1nc2c(s1)CC(C(C)C)n1cc(C(=O)O)c(=O)cc1-2 (configuration not stated)

>  <measurement_label>
CC50

>  <value>
> 50 µM

$$$$
>  <compound>
COCCCOc1cc2c(cc1C1CC1)-c1cc(=O)c(C(=O)O)cn1[C@H](C(C)C)CO2

>  <measurement_label>
CC50

>  <value>
42 µM

$$$$
>  <compound>
CC(C)[C@@H]1COc2cc(OCC3CC3)c(Cl)cc2-c2cc(=O)c(C(=O)O)cn21

>  <measurement_label>
CC50

>  <value>
37 µM

$$$$
>  <compound>
COCCCOc1cc2c(nc1OC)-c1cc(=O)c(C(=O)O)cn1[C@](C)(C(C)C)C2

>  <measurement_label>
CC50

>  <value>
> 50 µM

$$$$
>  <compound>
CC(C)C1Cc2sc(Cl)cc2-c2cc(=O)c(C(=O)O)cn21 (configuration not stated)

>  <measurement_label>
CC50

>  <value>
> 50 µM

$$$$

Please give the measured CC50 for this compound: CC(C)[C@@H]1COc2cc(OCCCO)c(Cl)cc2-c2cc(=O)c(C(=O)O)cn21
> 50 µM

Value lookup for CC50; key = COc1cc2c(nc1OC)-c1cc(=O)c(C(=O)O)cn1[C@H](C(C)C)C2
> 50 µM

Value lookup for CC50; key = COCCCOc1cc2c(nc1OC)-c1cc(=O)c(C(=O)O)cn1[C@H](C(C)C)C2
> 50 µM

Given the compound COc1cc2c(cc1Cl)-c1cc(=O)c(C(=O)O)cn1[C@H](C(C)C)CO2 , what is its reported CC50?
> 50 µM

Any idea what its CC50 is? The compound is COCCCOc1cc2c([nH]c1=O)-c1cc(=O)c(C(=O)O)cn1[C@H](C(C)C)C2
> 50 µM

I would be grateful if you could share the reported CC50 for COc1cc2c(cc1Cl)-c1cc(=O)c(C(=O)O)cn1C(C(C)C)CO2 (configuration not stated) .
46 µM
